Cited source for all entries: the supplement of paper PMC10065799

- target: Hck (UniProt P08631)
- Sequence (P08631 whole entry, looked up): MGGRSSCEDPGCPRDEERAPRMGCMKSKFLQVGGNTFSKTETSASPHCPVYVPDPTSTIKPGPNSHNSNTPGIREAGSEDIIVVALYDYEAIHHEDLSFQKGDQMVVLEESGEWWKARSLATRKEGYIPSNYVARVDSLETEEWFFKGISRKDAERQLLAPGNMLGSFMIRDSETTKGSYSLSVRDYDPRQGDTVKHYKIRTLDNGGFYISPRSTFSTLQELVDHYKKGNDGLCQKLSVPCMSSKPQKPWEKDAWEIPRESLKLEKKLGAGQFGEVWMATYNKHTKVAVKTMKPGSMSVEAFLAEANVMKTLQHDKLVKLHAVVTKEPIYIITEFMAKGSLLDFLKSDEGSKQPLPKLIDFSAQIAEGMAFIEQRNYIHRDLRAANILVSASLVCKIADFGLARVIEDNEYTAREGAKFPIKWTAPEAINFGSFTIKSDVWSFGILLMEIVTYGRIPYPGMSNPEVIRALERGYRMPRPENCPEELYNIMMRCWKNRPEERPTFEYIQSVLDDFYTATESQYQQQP
- protocol-summary: phosphorylation enrichment, bacterial display (enrichment ratio); higher = better substrate or ligand; peptides without Tyr show the background;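 further: 11-residue human phosphosite peptides and single-mutation variants displayed on the E. coli surface, counted by deep sequencing, each peptide's frequency after selection divided by its frequency in the unselected input library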;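 further: frequency after pTyr selection over input frequency; kinase dosed for 20-30% of maximal phosphorylation in three min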
Mark y for reported phosphorylation enrichment of 0.5 or greater; mark n for anything smaller.

// below: answered sequences
DAAEDYAEGVR [DHODH_Y194]
y
DRLASDLDKVR [KRT10_Y160_Y160D]
n
DPHQQYFIAMD [TBX15_Y159_YF]
y
ERLWVYGMSSS [F8_Y1728_D1727V]
y

[ask] Quick check: does FSPGSYERETF [NF1_Y2192] have phosphorylation enrichment greater than or equal to 0.5?
[reply] n

[ask] Has HVIKLFGACSQ [RET_Y791_Y791F] a recorded phosphorylation enrichment greater than or equal to 0.5?
[reply] y
